# Tested on: Chordin-like protein 2 (CHRDL2)
# Test description: compounds binding chordin-like 2 – biochemical, small-molecule microarray, 635 nm fluorescence, primary screen (AID 1126);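 also: printed compound slides probed with Chrdl2 protein at 4 µg/mL for 1 h at 4 C; score merges 667 nm emission intensity with signal to noise over three replicate slides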
# Measurement conditions: fluorescence 635 nm, higher = more signal
Everything with composite z-score lower than -0.06 is rule not met; everything else, including exactly -0.06, is rule met.

Dear colleague, could you confirm whether CO[C@H]1O[C@H](CO)[C@@H](OC(=O)c2ccc(Br)cc2)[C@@H]2OC(=O)[C@H](Cc3cccc(Br)c3)C/C=C/C[C@@H](Cc3cccc(Br)c3)C(=O)O[C@@H]12 has composite z-score at or above -0.06?
rule met

Would you say COC(=O)C(CC#Cc1ccc2c(c1)[C@]1(C(=O)N2)[C@H](C(=O)N2CCc3cc(OC)c(OC)cc3C2)[C@H]2C(=O)O[C@H](c3ccccc3)[C@H](c3ccccc3)N2[C@@H]1c1ccc(OCCO)cc1)C(=O)OC shows composite z-score at minimum -0.06?
rule met

Check the entry C[C@@H]1ON(c2ccccc2)[C@H](c2ccccc2)[C@H]1C(=O)N1C(=O)OC[C@H]1Cc1ccccc1 : does composite z-score equal or exceed -0.06?
rule met

Reported composite z-score at or above -0.06? COC(=O)[C@@]1(Cc2ccc(OC)cc2)[C@H]2c3cc(C(=O)N(C)C)n(Cc4cc(F)c(F)c(F)c4)c3C[C@H]2CN1C(=O)c1ccccc1
rule met

# check: composite z-score of COCCCNC(=O)[C@@H]1c2ccccc2C(=O)N(c2ccc(C)cn2)[C@H]1c1ccc(CO)cc1 is greater than or equal to -0.06
rule not met

Does the molecule C=CC[C@]1(C(=O)N2CCOCC2)N=C(c2ccc(OCCCO)cc2)O[C@H]1c1ccccc1CN=[N+]=[N-] have recorded composite z-score that is -0.06 or more?
rule not met

Please tell me: is the molecule CN(C)CCCN1C(=O)[C@@]2(Cc3ccccc31)c1ccccc1C(=O)N(Cc1ccccc1)[C@H]2c1ccc(CO)cc1 at or over -0.06 in terms of composite z-score?
rule met
